Target: 5-hydroxytryptamine receptor 2C (Rattus norvegicus)
Sequence (P08909 whole entry): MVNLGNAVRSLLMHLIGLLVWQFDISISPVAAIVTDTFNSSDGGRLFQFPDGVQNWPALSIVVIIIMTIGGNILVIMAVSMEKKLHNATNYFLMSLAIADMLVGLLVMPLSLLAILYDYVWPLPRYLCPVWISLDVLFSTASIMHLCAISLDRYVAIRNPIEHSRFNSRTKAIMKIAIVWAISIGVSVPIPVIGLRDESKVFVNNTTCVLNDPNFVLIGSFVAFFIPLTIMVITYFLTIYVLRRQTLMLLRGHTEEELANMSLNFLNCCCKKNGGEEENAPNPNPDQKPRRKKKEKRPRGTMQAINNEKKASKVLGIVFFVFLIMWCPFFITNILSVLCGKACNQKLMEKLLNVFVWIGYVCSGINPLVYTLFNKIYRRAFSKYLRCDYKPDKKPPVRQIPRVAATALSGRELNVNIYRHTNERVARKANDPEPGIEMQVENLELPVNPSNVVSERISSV
MEASUREMENT KIND: Ki (nM)

compound=CCNC(=O)N1CCN(CCCC(c2ccc(F)cc2)c2ccc(F)cc2)CC1 prefix_operator== recorded_number=1260
compound=OCCN1CCN(CCCN2c3ccccc3Sc3ccc(Cl)cc32)CC1 prefix_operator== recorded_number=50.1
compound=CN1CCN(C2=Nc3cc(F)ccc3Cc3ccccc32)CC1 prefix_operator== recorded_number=19.9
compound="CC(=O)c1ccc2c(c1)N(CCCN1CCN(CCO)CC1)c1ccccc1S2 [CAS_5714-00-1]" prefix_operator== recorded_number=1000
compound=CN1CCN(CCCN2c3ccccc3Sc3ccc(Cl)cc32)CC1 prefix_operator== recorded_number=79.4
compound=O=c1[nH]c2ccccc2n1C1CCN(CCCC(c2ccc(F)cc2)c2ccc(F)cc2)CC1 prefix_operator=> recorded_number=10000
compound="CN1CCN(C2=Nc3cscc3C(=CC#N)c3cscc32)CC1 [NSC_3086153]" prefix_operator== recorded_number=63.1
